Data origin, for the record: ChEMBL document CHEMBL5236594

- measured.target: Neuronal acetylcholine receptor; alpha3/beta4 (Homo sapiens, UniProt P30926+P32297)
- Sequence (P30926 whole entry): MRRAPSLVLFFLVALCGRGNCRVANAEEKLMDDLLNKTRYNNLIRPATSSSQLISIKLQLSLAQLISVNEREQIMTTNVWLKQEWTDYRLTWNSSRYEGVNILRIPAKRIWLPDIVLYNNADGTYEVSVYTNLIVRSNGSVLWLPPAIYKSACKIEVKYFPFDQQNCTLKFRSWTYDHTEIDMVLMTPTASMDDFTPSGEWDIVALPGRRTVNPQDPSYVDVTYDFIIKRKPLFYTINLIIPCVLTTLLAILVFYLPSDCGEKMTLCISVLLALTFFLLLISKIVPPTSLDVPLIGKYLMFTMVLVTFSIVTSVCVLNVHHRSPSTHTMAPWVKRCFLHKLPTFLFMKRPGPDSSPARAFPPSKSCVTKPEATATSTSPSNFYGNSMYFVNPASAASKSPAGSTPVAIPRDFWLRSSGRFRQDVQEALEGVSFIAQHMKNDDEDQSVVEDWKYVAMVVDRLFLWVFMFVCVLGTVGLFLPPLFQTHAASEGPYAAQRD
- Sequence (P32297 whole entry): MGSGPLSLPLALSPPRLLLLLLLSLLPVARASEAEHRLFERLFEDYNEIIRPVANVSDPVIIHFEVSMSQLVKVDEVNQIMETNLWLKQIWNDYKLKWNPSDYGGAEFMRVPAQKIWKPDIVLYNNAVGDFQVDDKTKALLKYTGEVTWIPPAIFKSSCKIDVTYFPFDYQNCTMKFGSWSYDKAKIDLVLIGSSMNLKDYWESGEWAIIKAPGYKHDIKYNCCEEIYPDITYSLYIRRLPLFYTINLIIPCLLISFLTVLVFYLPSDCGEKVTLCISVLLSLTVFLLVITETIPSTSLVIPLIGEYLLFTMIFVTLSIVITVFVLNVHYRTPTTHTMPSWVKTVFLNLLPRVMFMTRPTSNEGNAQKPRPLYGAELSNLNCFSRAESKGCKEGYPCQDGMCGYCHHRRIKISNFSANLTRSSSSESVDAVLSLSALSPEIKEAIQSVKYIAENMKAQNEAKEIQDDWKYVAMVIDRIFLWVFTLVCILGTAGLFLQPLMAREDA
- test.name: Binding affinity to alpha3beta4 nAChR (unknown origin) assessed as dissociation constant
Mark 1 only for Ki values smaller than 400 nM; exact matches and larger values are 0.

Completed entries (count: 3):
{"compound": "c1ccc(-c2nnc(O[C@H]3C4CCN(CC4)[C@@H]3Cc3cccnc3)s2)cc1 (relative stereo)", "class": 1}
{"compound": "c1cncc(C[C@@H]2[C@@H](Oc3ccc(-c4ccc[nH]4)nn3)C3CCN2CC3)c1 (relative stereo)", "class": 0}
{"compound": "c1cncc(C[C@@H]2[C@H](Oc3ccc(-c4ccc5[nH]ccc5c4)nn3)C3CCN2CC3)c1 (relative stereo)", "class": 1}

QUERY: State whether 400 nM exceeds Ki recorded for Nc1nc2ccc(-c3ccc(O[C@H]4C5CCN(CC5)[C@@H]4Cc4cccnc4)nn3)cc2s1 (relative stereo) .
RESULT: 0

QUERY: State whether 400 nM exceeds Ki recorded for c1ccc(-c2ccc(O[C@@H]3C4CCN(CC4)[C@H]3Cc3cccnc3)nn2)cc1 (relative stereo) .
RESULT: 1

QUERY: State whether 400 nM exceeds Ki recorded for c1cncc(C[C@H]2[C@H](Oc3ccc(-c4ccc5[nH]ccc5c4)cn3)C3CCN2CC3)c1 .
RESULT: 0

QUERY: State whether 400 nM exceeds Ki recorded for c1cncc(C[C@@H]2[C@@H](Oc3nnc(-c4ccc5[nH]ccc5c4)s3)C3CCN2CC3)c1 (relative stereo) .
RESULT: 0
